Below, each entry is listed with its recorded pIC50.
molecular target: SARS-CoV-2 Papain-Like Protease (PLpro) (Severe acute respiratory syndrome coronavirus 2 (2019-nCoV) (SARS-CoV-2), UniProt P0DTD1); test: biochemical; settings: SARS-CoV-2 PLpro enzymatic fluorescence assay; read-out: PLpro IC50
pIC50: −log10 of the molar value.

compound="Cc1cc2cc(C(=O)O)[nH]c2cc1C(=O)NC1(c2cccc3ccccc23)CC1 [Compound 204]" assay_metric=pIC50 result="6.00 to 7.00"
compound="COc1cc(C2(NC(=O)c3cc(OC[C@@H]4CCCCN4)ccc3C)CC2)c2cccnc2c1 [Compound 550]" assay_metric=pIC50 result="> 7.00"
compound="Cc1ncc(OCCN(C)C)cc1C(=O)NC1(c2cccc3ccccc23)CC1 [Compound 275]" assay_metric=pIC50 result="5.30 to 6.00"
compound="COc1cc(C2(NC(=O)c3cc(OCC4CCN4C)ccc3C)CC2)c2ccccc2c1 (centres unmarked) [Compound 384]" assay_metric=pIC50 result="> 7.00"
compound="Cc1ccc(NC2CNC2)cc1C(=O)N1Cc2ccc(-c3ccc(CN4CCCC4)s3)cc2C1 [Compound 111]" assay_metric=pIC50 result="< 5.30"
compound="Cc1cc2nc(C3CNC3)[nH]c2cc1C(=O)N[C@H](C)c1cccc2ccccc12 [Compound 131]" assay_metric=pIC50 result="5.30 to 6.00"

In: Annotate the compound Cc1ccc(OCCN(C)C)cc1C(=O)NC1(c2cccc(Cl)c2Cl)CC1 [Compound 335] with its measured pIC50.
Out: 6.00 to 7.00

In: Annotate the compound Cc1ccc(OC[C@H]2CCN2C)cc1C(=O)NC1(c2cccc3ncccc23)CC1 [Compound 390] with its measured pIC50.
Out: > 7.00

In: Annotate the compound Cc1ccc(OC[C@@H]2CCCN2)cc1C(=O)NC1(c2cccc3ncccc23)CC1 [Compound 380] with its measured pIC50.
Out: > 7.00

In: Annotate the compound Cc1ccc(COC2CNC2)cc1C(=O)NC1(c2cccc3ccccc23)CC1 [Compound 435] with its measured pIC50.
Out: 6.00 to 7.00

In: Annotate the compound Cc1cc(Br)c(OCCN(C)C)cc1C(=O)NC1(c2cccc3ccccc23)CC1 [Compound 369] with its measured pIC50.
Out: > 7.00

In: Annotate the compound Cc1ccc(OCCN2CCC(F)(F)CC2)cc1C(=O)NC1(c2cccc3ccccc23)CC1 [Compound 284] with its measured pIC50.
Out: 6.00 to 7.00

In: Annotate the compound Cc1cc2cc(C(C)N)[nH]c2cc1C(=O)NC1(c2cccc3ccccc23)CC1 (centres unmarked) [Compound 273] with its measured pIC50.
Out: > 7.00

In: Annotate the compound Cc1cc2cc(CN)[nH]c2cc1C(=O)N[C@H](C)c1cccc2ccccc12 [Compound 148] with its measured pIC50.
Out: 6.00 to 7.00

In: Annotate the compound CCc1ccccc1C1(NC(=O)c2cc(OCCN(C)C)ccc2C)CC1 [Compound 364] with its measured pIC50.
Out: 6.00 to 7.00

In: Annotate the compound CNCCOc1ccc(C)c(C(=O)NC2(c3cccc4cnccc34)CC2)c1 [Compound 375] with its measured pIC50.
Out: > 7.00

In: Annotate the compound Cc1ccc(OCCN(C)C)cc1NC(=O)C(C)c1cccc2ccccc12 (centres unmarked) [Compound 577] with its measured pIC50.
Out: < 5.30
